# Tested on: Escherichia coli
# ASSAY TEXT: Antimicrobial activity against tolC-deficient Escherichia coli K1 assessed as inhibition of LPS biosynthesis at 32 ug/ml after 5 hrs by SDS-PAGE analysis
# Format: functional, organism-based
Active and inactive are the calls of the source. The calls are words filed in the database; no cut-off is given here.
OUTCOME MEASURE: inhibition

[[record]]
test_smiles = "CN(C)CC(CN(C)C)NC(=O)COc1ccc2sc(CNc3nncc(-c4c(Cl)cccc4Cl)n3)nc2c1"
subject_of_test = "Escherichia coli"
outcome_measure = "inhibition"
value_reported = "inactive"

[[record]]
test_smiles = "NCCCN(CCCN)CCOc1ccc2sc(CNc3nncc(-c4c(Cl)cccc4Cl)n3)nc2c1"
subject_of_test = "Escherichia coli"
outcome_measure = "inhibition"
value_reported = "inactive"

[[record]]
test_smiles = "NCCCN(CCCN)C(=O)COc1ccc2sc(CNc3nncc(-c4c(Cl)cccc4Cl)n3)nc2c1"
subject_of_test = "Escherichia coli"
outcome_measure = "inhibition"
value_reported = "inactive"


These data points were gathered from ChEMBL document CHEMBL2321728.
